Attribution: PubChem BioAssay AID1345082

Assay: Cytotoxic Profiling in NIH 3T3 Cell Line of Diverse Libraries Using Quantitative High-Throughput Screening; note: nearly all actives have a fitted effect of over 55% in size
Conditions: NIH 3T3 viability, CellTiter-Glo ATP luminescence, 48-72 h; series mostly up to 96.7 µM
In all, about 94,000 compounds went through this assay and about 4,000 (4.3%) were called active. Not shown: some 29% with an inconclusive outcome. Calls come from the whole dose curve; as a rule, active = well fitted inhibition curve with a large enough effect; inconclusive = small, poorly fitted or top-dose-only effect; inactive = no such curve, though single readings can be large or run the other way. This excerpt belongs to a sample that is enriched for actives.
Returns: one label drawn from 1.0 for active, 0.0 for inactive

Problem: // param item: `CC(C)N1CC2CCC(C1)N2C(=O)N1CCCC1` ; yields the recorded call
Result: 0.0

Problem: // param item: `COc1ccc(-c2cn(C[C@H]3C[C@@H]4CCN3C[C@@H]4C(=O)NCc3ccccc3)nn2)cc1` ; yields the recorded call
Result: 0.0

Problem: // param item: `CCCS(=O)(=O)NC[C@H]1C[C@@H]2CCN1C[C@@H]2c1cc(C2CCCC2)nn1C` ; yields the recorded call
Result: 0.0

Problem: // param item: CCCCc1cn(C[C@H]2CC3CCN2C[C@@H]3C(=O)NCc2ccccc2)nn1 (some centres undefined) ; yields the recorded call
Result: 0.0

Problem: // param item: `CCOC(=O)[C@H]1CN(C(=O)N2CCOCC2)[C@]2(C)C(=O)N(CC(=O)N(C)C)c3ccccc3[C@H]12` ; yields the recorded call
Result: 0.0

Problem: // param item: `CCCCc1cn(C[C@H]2C[C@@H]3CCN2C[C@@H]3C(=O)NCCNC(C)=O)nn1` ; yields the recorded call
Result: 0.0

Problem: // param item: `CCCSc1ncc(CN2CC[C@H]3CNC[C@H]32)cn1` ; yields the recorded call
Result: 0.0

Problem: // param item: `CCC(CC)c1cc([C@H]2CN3CC[C@H]2C[C@@H]3CNC(=O)NCc2ccccc2)nc(-c2ccncc2)n1` ; yields the recorded call
Result: 1.0

Problem: // param item: `Cc1ccccc1-c1ccc2n(c1=O)C[C@H]1C[C@@H]2CN(C(=O)CSCC(=O)O)C1` ; yields the recorded call
Result: 0.0
